Tested on: SNB-75 CNS
Assay: NCI-60 one-dose screen, 48 h
Conditions: 10 µM unless noted
Method: Growth inhibition of the SNB-75 human tumor cell line is measured as a screen for anti-cancer activity. Cells are grown in 96 well plates and exposed to the test compound for 48 hours. Compounds are tested at a single concentration, which is 10^-5 M for most compounds. The reported endpoint is percent growth (GI% or GIPRCNT), where numbers from 0 - 100% represent growth inhibition, and numbers from -100% - 0 represent cell death. For example, a value of 40 represents 60% growth inhibition. […]
This is part of a sample that, as a whole, favours compounds with a hit. Of some 83,000 tested, about 20% had one in any assay. Calls of active or inactive are those of the source. Rule for the calls: active = growth percent below 10; inactive = the rest.
Labels: true (1) (active), false (0) (inactive)

Compound: COc1cccc(CC(C)=C(c2ccc(OCCCN(C)C)cc2)c2ccc(OCCCN(C)C)cc2)c1
Class name: true (1)

Compound: CC1(C)C(N(O)C(=O)Nc2ccc(Cl)cc2)N(c2ccc(Cl)cc2)C(=O)N1CC(=O)N/N=C/C=C/c1ccc([N+](=O)[O-])o1 (stereo not given)
Class name: true (1)

Compound: C[C@@H]1C[C@H](N)C[C@H](c2ccncc2NC(=O)c2ccc(F)c(-c3c(F)cccc3F)n2)C1
Class name: false (0)

Compound: CN1CCN(Cc2ccc(NC(=O)c3ccc(C#N)c(C#Cc4cnc(N)c5ncccc45)c3)cc2C(F)(F)F)CC1
Class name: false (0)

Compound: CC1CN(CCCOC(=O)Nc2ccc(Cl)cc2)CCN1C(C)(C)C (stereo not given)
Class name: false (0)

Compound: Nc1nc2c(c3ncccc13)C(c1ccccc1)Cc1ncccc1-2 (stereo not given)
Class name: false (0)

Compound: Cn1c(=O)c2[nH]c(Cc3ccc4c(c3)OCO4)nc2n(C)c1=O
Class name: false (0)

Compound: COc1ccc(-c2nsc3c2NC(=O)CC3c2cccc(F)c2)cc1 (stereo not given)
Class name: false (0)

Compound: NC(=Nc1ccccc1)SCCCSC(N)=Nc1ccccc1
Class name: false (0)

Compound: COc1ccc2[nH]c(C(=O)OCc3ccc4c(Br)cc(Br)c(O)c4n3)cc2c1
Class name: true (1)

Compound: CN1CCN(Cc2ccc(NC(=O)c3cncc(C#Cc4ncc5ccccn45)c3)cc2C(F)(F)F)CC1
Class name: false (0)

Compound: CCCCn1c(-c2ccc(F)cc2)nc2cc(OC)c(OC)cc2c1=O
Class name: false (0)

Compound: COc1ccc(/C=C2\N=C(c3cccnc3)N(c3ccccc3)NC2=O)cc1
Class name: false (0)

Compound: Cc1nc2ccc(Nc3nc(N4CCOCC4)nc(N4CCN(C)CC4)n3)cc2n1Cc1ccccc1
Class name: false (0)

Compound: O=C(O)C1[S][Sb]([CH](C(=O)O)[CH](C(=O)O)[Sb]2[S]C(C(=O)O)C(C(=O)O)[S]2)[S]C1C(=O)O (stereo not given)
Class name: false (0)

Compound: c1ccc2c(Cc3csc4ccccc34)csc2c1
Class name: false (0)

Compound: CCOc1c(C#N)c2c(N)ncnc2n1C1OC(CO)C(O)C1O (stereo not given)
Class name: false (0)

Compound: COc1ccc(NC(=O)C2c3ccccc3C(=O)N(CC(C)C)C2c2cccs2)cc1 (stereo not given)
Class name: false (0)

Compound: CN(C)c1ccc(C(c2ccccc2)c2ccc(N(C)C)cc2)cc1
Class name: false (0)

Compound: COc1cc2nccc(Oc3ccc(NC(=O)C4(C(=O)Nc5ccc(F)cc5)CC4)cc3)c2cc1O
Class name: false (0)

----------
Test system: SNB-19 CNS
Assay: NCI-60 one-dose screen, 48 h (100 = growth as untreated, 0 = no growth, -100 = all killed)
Conditions: 10 µM unless noted
Compounds without any hit were thinned out: in the full panel of roughly 83,000, 20% have a hit.
Tag: criterion met if measured growth is not below 80%, criterion not met if it is.

Compound: N#Cc1c(N)c(C(=O)c2ccc3c(c2)OCCO3)n2c1CCCC2
Measurement target: SNB-19 CNS
Class name: criterion not met
--
Compound: CC(C)=CCC[C@H](C)c1ccc(C)c2c1OCN(CCO)C2
Measurement target: SNB-19 CNS
Class name: criterion not met
--
Compound: CCN(C(=O)Nc1cccc2ccccc12)c1ccccc1
Measurement target: SNB-19 CNS
Class name: criterion met
--
Compound: CCCCn1c(-c2ccc(F)cc2)nc2cc(OC)c(OC)cc2c1=O
Measurement target: SNB-19 CNS
Class name: criterion met
--
Compound: CN(C)c1ccc(Nc2c3ccccc3nc3ccccc23)cc1
Measurement target: SNB-19 CNS
Class name: criterion not met
--
Compound: Cc1cc(C)c(C#N)c(SCC(=O)c2sc3c(C#N)c(C)cc(C)[n+]3c2[O-])n1
Measurement target: SNB-19 CNS
Class name: criterion not met
--
Compound: Nc1c(C(=O)c2ccc(Br)cc2)sc2nc3c(cc12)CCCC3
Measurement target: SNB-19 CNS
Class name: criterion met
--
Compound: CC(C)NC(=O)OCC#CCOC(=O)NC(C)C
Measurement target: SNB-19 CNS
Class name: criterion met
--
Compound: O=C(/C=C/c1cccc([N+](=O)[O-])c1)c1ccc(Nc2nc(N3CCCCC3)nc(N3CCCCC3)n2)cc1
Measurement target: SNB-19 CNS
Class name: criterion met
--
Compound: CC(=O)N(C)c1ccc(Nc2cc(C)[nH]c3ccc4ncnc4c23)cc1
Measurement target: SNB-19 CNS
Class name: criterion not met
--
Compound: COc1c(B(O)O)cccc1-c1nc2c(F)cc3n[nH]c(C)c3c2c2c1CCCC2
Measurement target: SNB-19 CNS
Class name: criterion not met
--
Compound: Cc1[nH]nc2ccc3nc(-c4ccc5[nH]ncc5c4)c4c(c3c12)CCCC4
Measurement target: SNB-19 CNS
Class name: criterion not met
--
Compound: c1ccc(C(CC2=NCCCN2)c2ccccc2)cc1
Measurement target: SNB-19 CNS
Class name: criterion met
--
Compound: Oc1c(C(c2ccc(F)cc2)N2CCCCC2)ccc2cncnc12 (stereo not given)
Measurement target: SNB-19 CNS
Class name: criterion not met
--
Compound: N#Cc1c(N)n(C2OC(CO)C(O)C2O)c2ncnc(N)c12 (stereo not given)
Measurement target: SNB-19 CNS
Class name: criterion not met
--
Compound: Cc1cc(NC(=O)c2ccc(N)cc2)ccc1N=Nc1ccc2cc(S(=O)(=O)O)cc(S(=O)(=O)O)c2c1
Measurement target: SNB-19 CNS
Class name: criterion met
--
Compound: COC(=O)c1ccc(NC(N)=NCCC(C)(C)c2ccc(C(F)(F)F)cc2)nc1
Measurement target: SNB-19 CNS
Class name: criterion not met
--
Compound: COC(=O)C(CCC(=O)CCl)N1C(=O)c2ccccc2C1=O (stereo not given)
Measurement target: SNB-19 CNS
Class name: criterion met
--
Compound: Cc1ccc(NC(=O)c2[nH]c(SCCN(C)C)nc2-c2ccc(F)cc2)cc1Nc1ccc2ncn(C)c(=O)c2c1
Measurement target: SNB-19 CNS
Class name: criterion met
--
Compound: FC1(F)CCN(Cc2c[nH]c3cc(Cl)ccc23)C[C@H]1CCc1ccccc1
Measurement target: SNB-19 CNS
Class name: criterion not met
--
Compound: O=C1Nc2ccccc2/C1=C/c1c[nH]c2ccccc12
Measurement target: SNB-19 CNS
Class name: criterion met
--
Compound: COC(=O)C(C)NC1=C(Cl)C(=O)C(NC(C)C(=O)OC)=C(Cl)C1=O (stereo not given)
Measurement target: SNB-19 CNS
Class name: criterion met
--
Compound: COc1ccc2c(c1)CCCC21C(=O)Nc2c(Cl)cccc21 (stereo not given)
Measurement target: SNB-19 CNS
Class name: criterion met
--
Compound: COc1cc(C)cc2oc3oc(=O)c(-c4csc(-c5cc6ccccc6oc5=O)n4)cc3c(=O)c12
Measurement target: SNB-19 CNS
Class name: criterion met
--
Compound: CCCCNCC(O)c1cc2c(Cl)cc(Cl)cc2c2cc(C(F)(F)F)ccc12 (stereo not given)
Measurement target: SNB-19 CNS
Class name: criterion not met
--
Compound: COc1ccc(-c2nsc3c2NC(=O)CC3c2ccc3c(c2)OCO3)cc1 (stereo not given)
Measurement target: SNB-19 CNS
Class name: criterion not met
--
Compound: CC(C)(C)CC(C)(C)NCc1cc(C(C)(C)C)cc(CNC(C)(C)CC(C)(C)C)c1O
Measurement target: SNB-19 CNS
Class name: criterion not met
--
Compound: COc1ccc(-c2nc3ccc(Cc4ccc5nc(-c6ccc(OC)cc6)[nH]c5c4)cc3[nH]2)cc1
Measurement target: SNB-19 CNS
Class name: criterion not met
--
Compound: COc1cc(CN2CCO[C@H](COc3cccc(F)c3)C2)ccc1Cl
Measurement target: SNB-19 CNS
Class name: criterion not met
--
Compound: O=C(OCc1ccc2c(Br)cc(Br)c(O)c2n1)c1cc2ccccc2[nH]1
Measurement target: SNB-19 CNS
Class name: criterion not met
--
Compound: C#CC[C@@H]1C[C@]2(C)[C@H]3CC=C4[C@H]5[C@@H](C)[C@H](C)CC[C@]5(C(=O)NCCCN5CCN(CCCN)CC5)CC[C@@]4(C)[C@]3(C)CC[C@H]2C(C)(C)[C@H]1OC(C)=O
Measurement target: SNB-19 CNS
Class name: criterion not met
--
Compound: CC(CN1CCN(CCOCCO)CC1)CN1c2ccccc2Sc2ccc(Cl)cc21 (stereo not given)
Measurement target: SNB-19 CNS
Class name: criterion met
--
Compound: COc1ccc(/C=c2\c(=O)n(-c3ccccc3)c3nn4c(=O)c(=O)[nH]nc4n23)cc1
Measurement target: SNB-19 CNS
Class name: criterion met
--
Compound: CS(=O)(=O)Nc1cc(-c2cc3ncc(C#N)c(Nc4ccc(Oc5ccccc5)c(Cl)c4)c3s2)cnc1Cl
Measurement target: SNB-19 CNS
Class name: criterion not met
--
Compound: Cc1ccc(/C=C/C(=N/N=C(N)N)c2ccccc2)cc1
Measurement target: SNB-19 CNS
Class name: criterion not met
--
Compound: CCN(CC)CCCNc1cccc2c(C)cc(OC)nc12
Measurement target: SNB-19 CNS
Class name: criterion met
--
Compound: C=CCn1c(C)nc2cc(Nc3nc(N4CCCC4)nc4nc[nH]c34)ccc21
Measurement target: SNB-19 CNS
Class name: criterion not met
--
Compound: CCN(CC)CCCC(C)Nc1cnc(C(=O)Nc2cc(C)cc3cccnc23)cn1 (stereo not given)
Measurement target: SNB-19 CNS
Class name: criterion met
--
Compound: Cc1ccc(N2C3c4ccccc4N(S(=O)(=O)c4ccc(C)cc4)C2c2ccccc2N3S(=O)(=O)c2ccc(C)cc2)cc1
Measurement target: SNB-19 CNS
Class name: criterion met
